System: MARIMO;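 also: after 48 h exposure read by CellTiter-Glo luminescence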
Assay: cell viability relative to vehicle control; higher = less cytotoxic
Settings: 10 µM; SRSF2 genotype: SRSF2 wt/wt
Where a name gives a salt, the structure may show the parent alone.
readout_name: cell viability

Example entries begin here.
compound: COC(=O)C1=C(C)NC(C)=C(C(=O)OC(C)C)C1c1cccc2nonc12 (centres undefined) [Isradipine (Dynacirc)]
system: MARIMO;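 also: after 48 h exposure read by CellTiter-Glo luminescence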
cell viability: 103%
--
compound: CCC[C@@H]1C[C@@H](C(=O)N[C@@H]([C@H]2O[C@H](SC)[C@H](O)[C@@H](O)[C@H]2O)[C@@H](C)O)N(C)C1 [Lincomycin hydrochloride (Lincocin)]
system: MARIMO;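 also: after 48 h exposure read by CellTiter-Glo luminescence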
cell viability: 95.2%
--
compound: CC[C@H](Nc1ncnc2[nH]cnc12)c1nc2cccc(F)c2c(=O)n1-c1ccccc1
system: MARIMO;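 also: after 48 h exposure read by CellTiter-Glo luminescence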
cell viability: 70.5%

Would you mind giving cell viability for every compound in the list below?
1. Cc1ccc(N(CC2=NCCN2)c2cccc(O)c2)cc1 [Phentolamine Mesylate]
2. O=C1c2ccccc2C(=O)c2c1ccc(O)c2O [Alizarin]

1: 95.2%; 2: 99.5%

Would you mind giving cell viability for every compound in the list below?
1. CC(C)=CCC[C@](C)(O[C@@H]1O[C@H](CO[C@@H]2OC[C@H](O)[C@H](O)[C@H]2O)[C@@H](O)[C@H](O)[C@H]1O)[C@H]1CC[C@]2(C)[C@@H]1[C@H](O)C[C@@H]1[C@@]3(C)CC[C@H](O[C@@H]4O[C@H](CO)[C@@H](O)[C@H](O)[C@H]4O[C@@H]4O[C@H](CO)[C@@H](O)[C@H](O)[C@H]4O)C(C)(C)[C@@H]3CC[C@]12C [Ginsenoside Rb2]
2. C[C@@H](c1nc(-c2ccc(C#N)cc2)cs1)[C@](O)(Cn1cncn1)c1cc(F)ccc1F [Isavuconazole]
3. N[C@@H]1CCCCN(c2c(F)cc3c(=O)c(C(=O)O)cn(C4CC4)c3c2Cl)C1 [Besifloxacin HCl (Besivance)]
4. CC(=O)O[C@H]1CC/C(C)=C/CC/C(C)=C/C[C@]2(C(C)C)CC[C@@]1(C)O2 [Incensole acetate]
5. Cc1cn([C@H]2C[C@H](O)[C@@H](CO)O2)c(=O)[nH]c1=O [Thymidine]

98.1%
33%
96.6%
89.2%
102%

---

Tested on: MARIMO;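 also: after 48 h exposure read by CellTiter-Glo luminescence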
Assay: cell viability relative to vehicle control; higher = less cytotoxic
Conditions: 10 µM; SRSF2 genotype: SRSF2 P95H/wt
Would you mind telling me the reported cell viability of each entry?
Answers are plain numbers, in %.

molecule: CCC(C(=O)O)c1ccc(N2Cc3ccccc3C2=O)cc1 (configuration not stated)
system: MARIMO;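 also: after 48 h exposure read by CellTiter-Glo luminescence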
unit_descriptor: %
cell viability: 91.3
--
molecule: C[C@H]1C[C@H]2[C@@H]3CCC4=CC(=O)C=C[C@]4(C)[C@H]3C(=O)C[C@]2(C)[C@@]1(O)C(=O)CO
system: MARIMO;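 also: after 48 h exposure read by CellTiter-Glo luminescence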
unit_descriptor: %
cell viability: 101
--
molecule: NS(=O)(=O)c1ccc(NC(=S)N2CCN(CC=Cc3ccccc3)CC2)cc1
system: MARIMO;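 also: after 48 h exposure read by CellTiter-Glo luminescence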
unit_descriptor: %
cell viability: 83.5
--
molecule: Cc1cc(-c2ccc(/N=N/c3ccc4c(S(=O)(=O)O)cc(S(=O)(=O)O)c(N)c4c3O)c(C)c2)ccc1/N=N/c1ccc2c(S(=O)(=O)O)cc(S(=O)(=O)O)c(N)c2c1O
system: MARIMO;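 also: after 48 h exposure read by CellTiter-Glo luminescence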
unit_descriptor: %
cell viability: 63.8
--
molecule: C[C@H](Oc1ccc(S(C)(=O)=O)cc1C(=O)N1CCN(c2ncc(C(F)(F)F)cc2F)CC1)C(F)(F)F
system: MARIMO;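 also: after 48 h exposure read by CellTiter-Glo luminescence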
unit_descriptor: %
cell viability: 97.1

Would you mind giving cell viability for every molecule in the list below?
1. CCCCCCCCOc1ccccc1C(=O)Nc1ccc(C(=O)OCC[N+](C)(CC)CC)cc1 [Otilonium Bromide]
2. O=c1cc(-c2ccc(O)c(O)c2)oc2c([C@@H]3O[C@H](CO)[C@@H](O)[C@H](O)[C@H]3O)c(O)cc(O)c12

1. 84.9
2. 100
